Catalogue of IC50 readings, one per entry.
Target: T1, 6His-Fc-FGFR4 (human, UniProt P22455 144-369)
T1 construct: not shown: 6His tag and Fc as named in '6His-Fc-FGFR'
T1 sequence: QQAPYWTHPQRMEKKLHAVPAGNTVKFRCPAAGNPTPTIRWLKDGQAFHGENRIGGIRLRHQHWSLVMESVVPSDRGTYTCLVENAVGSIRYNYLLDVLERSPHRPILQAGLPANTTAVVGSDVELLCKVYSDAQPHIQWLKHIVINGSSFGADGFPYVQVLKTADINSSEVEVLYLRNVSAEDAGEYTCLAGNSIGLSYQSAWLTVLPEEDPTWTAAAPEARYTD
Test: competition ELISA, blocks 6His-Fc-FGFR4 binding to coated FGF2
Just the number please, in nM, no unit attached.

Answered examples (2):
[[record]]
binder = "Ab82 (antibody, human IgG2, kappa, V domains shown, format in the assays not spelled out) VH: EVQLLESGGGVVQPGRSLRLSCAASGFTFSSYAMHWVRQAPGKGLEWVAVISYDGSNKYYADSVKGRFTISRDNSKNTLSLQMNSLRVEDTAIYYCVRGAGLGFPFGPDGFDIWGQGTMVTVSS VL: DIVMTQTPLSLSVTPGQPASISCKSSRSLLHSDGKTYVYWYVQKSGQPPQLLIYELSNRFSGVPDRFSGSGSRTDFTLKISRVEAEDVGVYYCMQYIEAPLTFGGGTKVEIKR"
recorded_measurement = 10.4

[[record]]
binder = "Ab16 (antibody, human IgG2, kappa, V domains shown, format in the assays not spelled out) VH: EVQLLESGGGVVQPGRSLRLSCAASGFTFSSYAMHWVRQAPGKGLEWVAVISYDGSNKYYADSVKGRFTISRDNSKNTLSLQMNSLRVEDTAIYYCVRGAGRGYTRGPDGFDIWGQGTMVTVSS VL: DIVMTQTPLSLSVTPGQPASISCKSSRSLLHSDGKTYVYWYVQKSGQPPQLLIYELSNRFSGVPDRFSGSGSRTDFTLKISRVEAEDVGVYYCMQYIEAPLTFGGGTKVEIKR"
recorded_measurement = 40.1


What value of measured IC50 is listed for Ab65 (antibody, human IgG2, kappa, V domains shown, format in the assays not spelled out) VH: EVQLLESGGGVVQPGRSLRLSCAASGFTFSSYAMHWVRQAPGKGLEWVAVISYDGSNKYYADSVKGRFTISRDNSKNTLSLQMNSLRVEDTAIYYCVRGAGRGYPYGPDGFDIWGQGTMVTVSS VL: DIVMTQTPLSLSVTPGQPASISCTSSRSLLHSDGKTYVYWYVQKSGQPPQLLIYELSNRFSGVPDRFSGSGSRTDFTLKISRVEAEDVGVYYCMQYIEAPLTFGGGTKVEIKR ? 13.4
